// data source = the Human Domainome abundance scans (Beltran et al. 2025)

B1: POU domain, class 3, transcription factor 1, residues 247 to 324; numbered along this chain, Q03052 (parent)
chain: EDAPSSDDLEQFAKQFKQRRIKLGFTQADVGLALGTLYGNVFSQTTICRFEALQLSFKNMCKLKPLLNKWLEETDSSS

Variants of: B1
Procedure details: abundance fitness (aPCA) (normalised: wild type 0, dead -1); higher = more abundant; growth selection in yeast, the domain comes from the species named
Condition label: Homo sapiens
abundance fitness by entry:
Reply with the value as a number alone.

So for `S78K` , the logged abundance fitness turned out to be 0.164

So for `K58E` , the logged abundance fitness turned out to be 0.031

So for `Y38I` , the logged abundance fitness turned out to be 0.108

So for `L53Q` , the logged abundance fitness turned out to be -0.009

So for `G35K` , the logged abundance fitness turned out to be -0.125

So for `F42I` , the logged abundance fitness turned out to be 0.231
